assay: Anticancer human tumor 997537-175-T-J1-PDC patient-derived colon adenocarcinoma cell line growth inhibition [POLQ]; settings: 997537-175-T-J1-PDC complex spheroid viability, combination with POLQ inhibitors; second compound 0.1 µM; first compound 0.1 µM; active means viability on the fitted dose curve at most 10% of control; inactive means the rest;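 further: luminescence signal used as a surrogate for viable cells; spheroids exposed to drugs for seven days before readout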
Respond only with the outcome that fits, drawn from YES (active), NO (inactive)

**Query** Call for entry Cn1ncnc1[C@H]1c2n[nH]c(=O)c3cc(F)cc(c23)N[C@@H]1c1ccc(F)cc1 + Cc1cccc(N(C)C(=O)C2C(O)CCN2c2nc(C)cc(C(F)(F)F)c2C#N)c1 :
**Result** NO

**Query** Per the records of this test, what outcome belongs to COc1ccc([C@@H](O)c2cc(-c3ncnc4cc(N5CCOCC5)ccc34)c(F)cc2Cl)nn1 + Cc1cccc(N(C)C(=O)C2C(O)CCN2c2nc(C)cc(C(F)(F)F)c2C#N)c1 ?
**Result** NO

**Query** In this assay, the call recorded for CC1COCCN1c1cc(C2(S(C)(=N)=O)CC2)nc(-c2ccnc3[nH]ccc23)n1 (stereo not given) + COC1C(OC(N)=O)C(O)C(Oc2ccc3c(O)c(NC(=O)c4ccc(O)c(CC=C(C)C)c4)c(=O)oc3c2C)OC1(C)C was what?
**Result** NO

**Query** For Cn1ncnc1[C@H]1c2n[nH]c(=O)c3cc(F)cc(c23)N[C@@H]1c1ccc(F)cc1 + Nc1ccc(C#CCN(C(=O)Cc2ncc(C(F)(F)F)cc2C(F)(F)F)c2ccc(F)cc2)nn1 , what call appears in the results of this test?
**Result** NO

**Query** Could you check what this test reported for CC1COCCN1c1cc(C2(O)CC3CCC(C2)O3)c2cnn(-c3ccn[nH]3)c2n1 (stereo not given) + Cc1cccc(N(C)C(=O)C2C(O)CCN2c2nc(C)cc(C(F)(F)F)c2C#N)c1 ?
**Result** NO

Further cases:
**Query** Would you mind telling me which call this test gave CC(C)n1c(=O)n(C)c2cnc3cc(F)c(-c4ccc(OCCCN5CCCCC5)nc4)cc3c21 + Cc1cccc(N(C)C(=O)C2C(O)CCN2c2nc(C)cc(C(F)(F)F)c2C#N)c1 ?
**Result** NO

**Query** What call does the record list for COc1cccc2c1C(=O)c1c(O)c3c(c(O)c1C2=O)CC(O)(C(=O)CO)CC3OC1CC(N)C(O)C(C)O1 (stereo not given) + COC1C(OC(N)=O)C(O)C(Oc2ccc3c(O)c(NC(=O)c4ccc(O)c(CC=C(C)C)c4)c(=O)oc3c2C)OC1(C)C ?
**Result** NO

**Query** What did this assay record as the result for COc1cc(C2c3cc4c(cc3C(OC3OC5COC(C)OC5C(O)C3O)C3COC(=O)C23)OCO4)cc(OC)c1O (stereo not given) + Cc1cccc(N(C)C(=O)C2C(O)CCN2c2nc(C)cc(C(F)(F)F)c2C#N)c1 ?
**Result** NO

**Query** What did this assay record as the result for CCc1c2c(nc3ccc(O)cc13)-c1cc3c(c(=O)n1C2)COC(=O)[C@]3(O)CC + COC1C(OC(N)=O)C(O)C(Oc2ccc3c(O)c(NC(=O)c4ccc(O)c(CC=C(C)C)c4)c(=O)oc3c2C)OC1(C)C ?
**Result** YES

**Query** Dear all, I need the recorded test outcome for CC[C@@]1(O)C(=O)OCc2c1cc1n(c2=O)Cc2cc3c(CN(C)C)c(O)ccc3nc2-1 + Cc1cccc(N(C)C(=O)C2C(O)CCN2c2nc(C)cc(C(F)(F)F)c2C#N)c1 , thank you.
**Result** NO

Numbers sourced from PubChem BioAssay AID1963825.
